Some compounds, each annotated with its measured T/C.
System: L1210 leukemia ip in BDF1 mice, survival T/C
Assay: NCI In Vivo Anticancer Drug Screen. Data for tumor model L1210 Leukemia (intraperitoneal) in B6D2F1 (BDF1) mice
Conditions: endpoint: mean survival time; dose: 200.0 mg/kg/injection; schedule: Q01DX001 (ip); vehicle: carboxymethylcellulose (CMC); higher = longer survival
Inconclusive results and toxic doses are left out.
EXPERIMENTAL_READOUT: T/C

>>> recorded_result("COC(=O)c1[nH]cnc1/N=N/N(C)C1CCCCC1")
"102 % of control"
>>> recorded_result("CN1C(c2ccccc2)(c2ccccc2)c2ccccc2S1(=O)=O")
"95 % of control"
>>> recorded_result("COc1ccc2nc3cc(Cl)ccc3c(Cl)c2c1")
"90 % of control"
>>> recorded_result("O=[N+]([O-])c1ccc2c(c1)Cc1cc(O)c(I)cc1-2")
"101 % of control"
>>> recorded_result("COc1cc(C(=O)NN(C)C)cc(OC)c1OC")
"101 % of control"
>>> recorded_result("O=C(O)C1(Br)c2ccccc2-c2ccccc21")
"96 % of control"
>>> recorded_result("NN1C(=O)Cc2ccccc2C1=O")
"93 % of control"
>>> recorded_result("Nc1cc(=O)n(Cc2ccccc2)c(=O)n1Cc1ccccc1")
"111 % of control"
>>> recorded_result("CCCC(CCCC(=O)O)C(=O)O (stereo not drawn)")
"92 % of control"
>>> recorded_result("Cc1sc(-c2ccccc2)nc1-c1ccc(N=Cc2ccc(N(CCCl)CCCl)cc2)cc1")
"101 % of control"
>>> recorded_result("c1ccc(-c2ccns2)cc1")
"93 % of control"
>>> recorded_result("CC1Nc2ccccc2-c2ccccc2C1=O (stereo not drawn)")
"102 % of control"
>>> recorded_result("CC(CO)(CO)N=Cc1cccc([N+](=O)[O-])c1")
"103 % of control"

* * *

Some compounds, each annotated with its measured T/C.
Tested on: L1210 leukemia ip in BDF1 mice, survival T/C
Test: NCI In Vivo Anticancer Drug Screen. Data for tumor model L1210 Leukemia (intraperitoneal) in B6D2F1 (BDF1) mice
Conditions: endpoint: mean survival time; dose: 100.0 mg/kg/injection; schedule: Q04DX003 (ip); vehicle: saline; higher = longer survival
Inconclusive results and toxic doses are left out.
EXPERIMENTAL_READOUT: T/C

>>> recorded_result("COC(=O)C(=O)OC(=O)C(=O)OC")
"92 % of control"
>>> recorded_result("CC1(C)c2ccccc2C(=O)C1Cc1ccccc1 (stereo not drawn)")
"107 % of control"
>>> recorded_result("O=CN(c1ccccc1)c1ccccc1")
"100 % of control"
>>> recorded_result("CN(C(=O)COc1ccc([N+](=O)[O-])cc1Cl)c1ccc(S(=O)(=O)F)cc1")
"104 % of control"
>>> recorded_result("COC(=O)c1ccccc1NN=Nc1ccccc1Cl")
"105 % of control"
>>> recorded_result("O=c1cc(CSCCO)[nH]c(=O)[nH]1")
"102 % of control"
>>> recorded_result("O=C(NCOC(c1ccccc1)c1ccccc1)c1cccnc1")
"89 % of control"
>>> recorded_result("CCCCCCOC(=O)/C=C(/C)OCCCCCC")
"94 % of control"

* * *

Test system: L1210 leukemia ip in BDF1 mice, survival T/C
Assay: NCI In Vivo Anticancer Drug Screen. Data for tumor model L1210 Leukemia (intraperitoneal) in B6D2F1 (BDF1) mice
Conditions: endpoint: mean survival time; dose: 400.0 mg/kg/injection; schedule: Q01DX001 (ip); vehicle: carboxymethylcellulose (CMC); higher = longer survival
Toxic doses and inconclusive results are not listed.
EXPERIMENTAL_READOUT: T/C

>>> recorded_result("CCCC(O)CN (configuration not stated)")
"116 % of control"
>>> recorded_result("CC(C)Cn1cnc2c(=S)nc(N)[nH]c21")
"112 % of control"
>>> recorded_result("CC(=O)Nc1ccc(S(N)(=O)=O)cc1")
"97 % of control"
>>> recorded_result("Nc1ccc2c(c1)C(=O)c1c(F)ccc(F)c1-2")
"115 % of control"
>>> recorded_result("O=C(N/N=C\\c1ccccc1O)c1ccco1")
"95 % of control"
>>> recorded_result("O=C(Nc1ccc(S(=O)(=O)c2ccc(NC(=O)C(F)(F)N3CCOCC3)cc2)cc1)C(F)(F)N1CCOCC1")
"103 % of control"
>>> recorded_result("CCNc1nc2c(N)ncnc2n1C1CC(O)C(CO)O1 (configuration not stated)")
"93 % of control"
>>> recorded_result("Cn1c(N)c(N=Nc2ccc(S(=O)(=O)Nc3nccs3)cc2)c(=O)n(C)c1=O")
"90 % of control"
>>> recorded_result("S=c1sc2ccccc2n1CCNc1ccccc1")
"89 % of control"
>>> recorded_result("Cc1ccc(-c2nnc3c4ccccc4ccn23)cc1")
"91 % of control"
>>> recorded_result("CN(C)c1ccc(C=Nc2cccc(O)c2)cc1")
"94 % of control"
>>> recorded_result("CCCCC(SC(CC)(C(C)=O)c1ccccc1)C(N)=O (configuration not stated)")
"96 % of control"
